I'd appreciate it if you could supply IC50 values for the items below.
# experimental.target: PDGF-Ra (Homo sapiens, UniProt P16234)
# Construct: host or cells: G-292 human osteosarcoma cells
# Sequence (P16234 24-1089): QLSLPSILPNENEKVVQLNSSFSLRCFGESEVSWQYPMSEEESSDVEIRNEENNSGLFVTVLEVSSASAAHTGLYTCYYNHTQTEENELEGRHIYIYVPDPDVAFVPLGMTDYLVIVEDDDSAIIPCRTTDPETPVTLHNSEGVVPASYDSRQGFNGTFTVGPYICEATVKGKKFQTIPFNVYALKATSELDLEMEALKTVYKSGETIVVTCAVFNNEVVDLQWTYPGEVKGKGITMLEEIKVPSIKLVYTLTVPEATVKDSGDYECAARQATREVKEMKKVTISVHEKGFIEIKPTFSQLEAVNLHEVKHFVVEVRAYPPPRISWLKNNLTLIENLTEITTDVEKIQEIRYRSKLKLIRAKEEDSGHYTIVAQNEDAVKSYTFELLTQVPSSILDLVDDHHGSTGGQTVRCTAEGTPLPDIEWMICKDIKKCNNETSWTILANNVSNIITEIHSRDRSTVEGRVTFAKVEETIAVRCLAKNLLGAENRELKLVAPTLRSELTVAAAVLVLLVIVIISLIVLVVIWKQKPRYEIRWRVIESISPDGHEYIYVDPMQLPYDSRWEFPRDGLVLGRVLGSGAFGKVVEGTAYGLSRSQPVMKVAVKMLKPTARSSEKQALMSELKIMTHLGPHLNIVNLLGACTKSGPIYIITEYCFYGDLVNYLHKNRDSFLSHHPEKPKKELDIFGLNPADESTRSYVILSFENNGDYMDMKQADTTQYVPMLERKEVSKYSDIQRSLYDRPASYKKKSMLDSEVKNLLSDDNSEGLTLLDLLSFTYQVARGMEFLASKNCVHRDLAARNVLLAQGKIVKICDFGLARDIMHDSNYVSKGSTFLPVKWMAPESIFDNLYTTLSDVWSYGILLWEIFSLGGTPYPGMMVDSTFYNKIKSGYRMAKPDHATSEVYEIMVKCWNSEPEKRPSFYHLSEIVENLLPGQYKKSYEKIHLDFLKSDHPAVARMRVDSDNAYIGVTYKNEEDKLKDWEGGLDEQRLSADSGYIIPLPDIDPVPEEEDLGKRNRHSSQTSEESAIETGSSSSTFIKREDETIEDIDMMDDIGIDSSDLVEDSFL
# method: Inhibitory activity against PDGF-Ra phosphorylation by PDGF-AA stimulation using G292
# Type: cell-based
# condition.summary: > means inhibition at indicated concentration not more than 50%, < and << not less than 50%; read-out: PDGF (E) IC50

Reference set (6 entries):
{"compound": "CCCC(C)C(=O)NC(=S)Nc1ccc(Oc2ncnc3cc(OC)c(OC)cc23)cc1 (stereo not shown)", "IC50": "< 10 nM"}
{"compound": "COc1cc2nccc(Oc3ccc(NC(=S)NC(=O)c4ccc(C5CCCCC5)cc4)cc3Cl)c2cc1OC", "IC50": "> 100 nM"}
{"compound": "COc1ccc(C(=O)NC(=S)Nc2ccc(Oc3ccnc4cc(OC)c(OC)cc34)cc2Cl)c(OC)c1", "IC50": "> 100 nM"}
{"compound": "COc1cc2nccc(Oc3ccc(NC(=S)NC(=O)CCSC)cc3)c2cc1OC", "IC50": "< 10 nM"}
{"compound": "COc1cc2ncnc(Oc3ccc(NC(=S)NC(=O)CCC4CCCC4)cc3)c2cc1OC", "IC50": "< 10 nM"}
{"compound": "COc1cc2nccc(Oc3ccc(NC(=S)NC(=O)c4ccc(C)cc4)c(Cl)c3)c2cc1OC", "IC50": "> 100 nM"}

List the reported IC50 of each compound below.
1. COc1cc2nccc(Oc3ccc(NC(=S)NC(=O)COc4ccccc4)cc3)c2cc1OC
2. CCCCCCCCc1ccc(C(=O)NC(=S)Nc2ccc(Oc3ccnc4cc(OC)c(OC)cc34)cc2)cc1
3. COc1cc2ncnc(Oc3ccc(NC(=S)NCCNC(C)=O)cc3)c2cc1OC
4. COc1cc2nccc(Oc3ccc(NC(=S)NNC4CCCCC4)c(C)c3C)c2cc1OC
5. COc1cc2nccc(Oc3cc(C)c(NC(=O)OC4CCN(C)CC4)cc3C)c2cc1OC

Result:
["< 10 nM", "> 100 nM", "> 100 nM", "> 100 nM", "> 100 nM"]

For each entry beneath this line, provide reported IC50.
1. COc1cc2nccc(Oc3cc(C)c(NC(=O)NC4CCN(Cc5ccccc5)CC4)cc3C)c2cc1OC
2. COc1cc2nccc(Oc3ccc(NC(=S)NC(=O)Cc4ccccc4C)cc3Cl)c2cc1OC

Result:
1: > 100 nM; 2: < 10 nM

* * *

Could you please report measured pIC50 for the items listed next?
# experimental.target: PDGF-Ra (Homo sapiens)
# Construct: host or cells: G-292 human osteosarcoma cells
# method: Inhibitory activity against PDGF-Ra phosphorylation by PDGF-AA stimulation using G292
# Format: cell-based
# condition.summary: > means inhibition at indicated concentration not more than 50%, < and << not less than 50%; read-out: PDGF (E) IC50
One number for each entry, as −log10 of the molar value.

{"compound": "COc1cc2nccc(Oc3ccc(NC(=S)NC(=O)C4CC4C)cc3Cl)c2cc1OC (stereo not shown) [Example 1190]", "pIC50": 7.62}
{"compound": "CCN(CCNC(=S)Nc1ccc(Oc2ncnc3cc(OC)c(OC)cc23)cc1)c1ccccc1C [Example 528]", "pIC50": 7.48}
{"compound": "CCN(CC)CCCOC(=O)Nc1ccc(Oc2ncnc3cc(OC)c(OC)cc23)cc1 [Example 429]", "pIC50": 7.27}
{"compound": "CCN(CC)CCNC(=O)Nc1ccc(Oc2ncnc3cc(OC)c(OC)cc23)cc1[N+](=O)[O-] [Example 647]", "pIC50": 7.89}
{"compound": "COc1cc2nccc(Oc3ccc(NCCCOc4ccccc4Cl)cc3)c2cc1OC [Example 891]", "pIC50": 8.15}
{"compound": "COc1cc2ncnc(Oc3ccc(NC(=O)NCCN(C(C)C)C(C)C)c(Cl)c3)c2cc1OC [Example 657]", "pIC50": 7.40}
{"compound": "CCCC(CCN1CCOCC1)OC(=O)Nc1ccc(Oc2ccnc3cc(OC)c(OC)cc23)c(C)c1C (stereo not shown) [Example 439]", "pIC50": 7.28}

We next turn to a different compound, shown below.
Query: Reported pIC50 for CCCCN(CCCC)CCNC(=O)Nc1ccc(Oc2ncnc3cc(OC)c(OC)cc23)cc1Cl [Example 686] : what is it?
Result: 7.42

* * *

# experimental.target: PDGF-Ra (Homo sapiens, UniProt P16234)
# Construct: host or cells: G-292 human osteosarcoma cells
# method: Inhibitory activity against PDGF-Ra phosphorylation by PDGF-AA stimulation using G292
# Assay type: cell-based
# condition.summary: Pharmacological Test Example 1; > means inhibition at indicated concentration not more than 50%, < and << not less than 50%; read-out: PDGF (E) IC50
quantity.measured: IC50

The following compounds have reported results that may help.
{"compound": "COc1cc2nccc(Oc3ccc(NC(=O)OCc4ccccc4Cl)c(C)c3C)c2cc1OC", "endpoint.value": "< 3 nM"}
{"compound": "COc1cc2nccc(Oc3ccc(NC(=O)OCc4ccc(C(F)(F)F)cc4)c(C)c3C)c2cc1OC", "endpoint.value": "< 10 nM"}

Query: Looking for the measured IC50 of COc1cccc(C(C)OC(=O)Nc2ccc(Oc3ncnc4cc(OC)c(OC)cc34)cc2)c1 (stereo not drawn) , can you help?
Result: < 10 nM

* * *

# experimental.target: PDGF-Ra (Homo sapiens, UniProt P16234)
# Construct: host or cells: G-292 human osteosarcoma cells
# method: Inhibitory activity against PDGF-Ra phosphorylation by PDGF-AA stimulation using G292
# Type: cell-based
# condition.summary: > means inhibition at indicated concentration not more than 50%, < and << not less than 50%; read-out: PDGF (E) IC50
pIC50: −log10 of the molar value.
quantity.measured: pIC50

{"compound": "COc1cc2nccc(Oc3cc(C)c(NCCCOc4ccccc4Cl)cc3C)c2cc1OC [Example 892]", "pIC50": "< 7.00"}

For every item below, please supply its pIC50.
1. COc1cc2nccc(Oc3cc(C)c(NC(=O)Oc4cccc(C#N)c4)cc3C)c2cc1OC [Example 458]
2. COc1cc2nccc(Oc3ccc(NC(=O)OC4CCN(C)CC4)cc3)c2cc1OC [Example 466]

Result:
< 7.00
< 7.00

* * *

For each of the molecules below, state its pIC50.
# experimental.target: PDGF-Ra (Homo sapiens, UniProt P16234)
# Construct: host or cells: G-292 human osteosarcoma cells
# method: Inhibitory activity against PDGF-Ra phosphorylation by PDGF-AA stimulation using G292
# Format: cell-based
# condition.summary: Pharmacological Test Example 1; > means inhibition at indicated concentration not more than 50%, < and << not less than 50%; read-out: PDGF (E) IC50
pIC50: −log10 of the molar value.

Reference set (4 entries):
{"molecule": "CCCCCCOC(=O)Nc1ccc(Oc2ccnc3cc(OC)c(OC)cc23)cc1 [Example 256]", "pIC50": "> 8.52"}
{"molecule": "COc1cc2nccc(Oc3cc(C)c(NC(=O)OCCN(C)C)cc3C)c2cc1OC [Example 190]", "pIC50": "< 7.00"}
{"molecule": "COc1cc2ncnc(Oc3ccc(NC(=O)OCC4CCCCC4)cc3)c2cc1OC [Example 340]", "pIC50": "> 8.00"}
{"molecule": "COc1cc2nccc(Oc3ccc(NC(=O)OC4CCc5ccccc5C4)c(C)c3C)c2cc1OC (centres unmarked) [Example 293]", "pIC50": "> 8.00"}

Now for the molecule whose pIC50 we want.
Query: Returns the measured pIC50 for the input molecule. Input: COc1cc2ncnc(Oc3ccc(NC(=O)OC4CCCCCC4)c(Cl)c3)c2cc1OC [Example 343]
Result: > 8.00

* * *

# experimental.target: c-kit (Homo sapiens, UniProt P10721)
# Construct: MO7e (human megakaryocytic leukemia cell line) which had been arrested for 20 hr; endogenous in cells; host or cells: MO7e human megakaryocytic leukemia cell line
# Sequence (P10721 26-976): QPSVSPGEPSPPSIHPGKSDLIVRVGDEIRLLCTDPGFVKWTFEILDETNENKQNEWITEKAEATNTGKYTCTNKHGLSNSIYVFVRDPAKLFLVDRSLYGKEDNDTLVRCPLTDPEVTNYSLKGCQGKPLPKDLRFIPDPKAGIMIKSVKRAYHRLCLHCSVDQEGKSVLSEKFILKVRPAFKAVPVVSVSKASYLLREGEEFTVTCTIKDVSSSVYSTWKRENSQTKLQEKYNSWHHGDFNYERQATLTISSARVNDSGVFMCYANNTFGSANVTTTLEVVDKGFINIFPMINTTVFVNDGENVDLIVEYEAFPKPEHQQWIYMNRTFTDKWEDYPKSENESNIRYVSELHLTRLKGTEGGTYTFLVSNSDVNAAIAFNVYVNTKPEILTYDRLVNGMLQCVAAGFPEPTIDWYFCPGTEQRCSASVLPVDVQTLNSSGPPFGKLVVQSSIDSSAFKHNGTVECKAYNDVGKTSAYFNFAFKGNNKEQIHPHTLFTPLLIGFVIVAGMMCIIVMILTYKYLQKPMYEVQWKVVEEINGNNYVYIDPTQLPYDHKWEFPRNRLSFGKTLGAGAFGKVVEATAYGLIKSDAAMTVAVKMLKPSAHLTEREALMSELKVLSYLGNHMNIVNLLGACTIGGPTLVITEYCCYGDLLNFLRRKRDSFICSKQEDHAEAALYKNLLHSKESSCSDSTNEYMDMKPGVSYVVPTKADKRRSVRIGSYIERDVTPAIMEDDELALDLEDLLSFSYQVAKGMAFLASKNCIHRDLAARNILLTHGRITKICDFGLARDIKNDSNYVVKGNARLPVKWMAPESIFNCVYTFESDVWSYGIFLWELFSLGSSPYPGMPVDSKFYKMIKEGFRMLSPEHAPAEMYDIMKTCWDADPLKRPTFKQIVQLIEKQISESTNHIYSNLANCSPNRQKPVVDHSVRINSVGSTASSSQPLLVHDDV
# method: Inhibitory activity against c-kit autophosphorylation (MO7e cells, h-SCF)
# Assay type: cell-based
# condition.summary: MO7e cells, h-SCF 50 ng/ml; read-out: c-kit IC50
Hi there, I'd appreciate the recorded IC50 for every entry that follows.
Numbers only, in nM.

{"molecule": "C=CCCCOC(=O)Nc1cc(C)c(Oc2ccnc3cc(OC)c(OC)cc23)cc1C", "quantity.measured": "IC50", "endpoint.value": 35}
{"molecule": "COc1cc2nccc(Oc3ccc(NC(=O)OCc4ccc(C)cc4)c(C)c3C)c2cc1OC", "quantity.measured": "IC50", "endpoint.value": 46}
{"molecule": "COc1cccc(C(C)OC(=O)Nc2ccc(Oc3ncnc4cc(OC)c(OC)cc34)cc2)c1 (stereo not shown)", "quantity.measured": "IC50", "endpoint.value": 288}
{"molecule": "COc1cc2nccc(Oc3cc(C)c(NC(=O)Oc4ccc(-c5ccccc5)cc4)cc3C)c2cc1OC", "quantity.measured": "IC50", "endpoint.value": 178}
{"molecule": "COc1ccc(OC)c(COC(=O)Nc2cc(C)c(Oc3ccnc4cc(OC)c(OC)cc34)cc2C)c1", "quantity.measured": "IC50", "endpoint.value": 755}
{"molecule": "COc1cccc(OCCCOC(=O)Nc2ccc(Oc3ncnc4cc(OC)c(OC)cc34)cc2)c1 [Example 50]", "quantity.measured": "IC50", "endpoint.value": 50}

Now for the molecule whose IC50 we want.
Query: State the recorded IC50 for this entry: COc1cc2ncnc(Oc3cc(C)c(NC(=O)OC4CCCC4)cc3C)c2cc1OC
Result: 432

Values were extracted from patent US7135466B2.
